Experiment: xn = mol fraction of the nth substance listed
Condition Label: 313.15 K; 11030 kPa; Liquid; Taylor dispersion method; x1 = 0
Entries annotated with measured binary diffusion coefficient
Please respond with the number in m2/s and leave the unit unwritten.

C[c-]1cccc1.C[c-]1cccc1.[Fe+2] [1,1'-dimethylferrocene] + C1CCCCC1 :: 1.2e-09
CCc1ccc[cH-]1.[Fe+2].c1cc[cH-]c1 [ethyl ferrocene] + C1CCCCC1 :: 1.2e-09

I'd like to know its binary diffusion coefficient. The compound in question is [CH]1C=CC=C1.[CH]1C=CC=C1.[Fe] [ferrocene] + C1CCCCC1
1.31e-09

* * *

Entries annotated with measured binary diffusion coefficient
Experiment: xn = mol fraction of the nth substance listed
Condition Label: 313.15 K; 16030 kPa; Liquid; Taylor dispersion method; x1 = 0
Please respond with the number in m2/s and leave the unit unwritten.

Guide cases for binary diffusion coefficient, answers given:
[CH]1C=CC=C1.[CH]1C=CC=C1.[Fe] [ferrocene] + C1CCCCC1 :: 1.25e-09
CCc1ccc[cH-]1.[Fe+2].c1cc[cH-]c1 [ethyl ferrocene] + CCCCCC :: 2.87e-09
C[c-]1cccc1.C[c-]1cccc1.[Fe+2] [1,1'-dimethylferrocene] + C1CCCCC1 :: 1.13e-09

Next:
I'd like to know its binary diffusion coefficient. The compound in question is C[c-]1cccc1.C[c-]1cccc1.[Fe+2] [1,1'-dimethylferrocene] + CCCCCC
2.9e-09

The origin of these recorded values is the NIST ThermoML archive (doi:10.1016/j.fluid.2010.06.003).
